# system_name: TAF1L BD2 (Homo sapiens, UniProt Q8IZX4)
# Sequence (Q8IZX4 1517-1649): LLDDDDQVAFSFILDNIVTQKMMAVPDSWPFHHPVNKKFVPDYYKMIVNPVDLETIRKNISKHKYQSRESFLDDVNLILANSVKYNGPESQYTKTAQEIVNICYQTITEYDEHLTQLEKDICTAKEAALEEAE
# test_name: biochemical
# Format: binding
observation_type: IC50 (nM)

- molecule: "Cc1cc2c(cc1N1C(=O)c3cccc4c(CCCO)ccc(c34)C1=O)n(C)c(=O)n2C (racemic)"
  obs_value: 106
